# Measured target: Adrenergic α1C (Homo sapiens, UniProt P35348)
# Sequence (P35348 whole entry): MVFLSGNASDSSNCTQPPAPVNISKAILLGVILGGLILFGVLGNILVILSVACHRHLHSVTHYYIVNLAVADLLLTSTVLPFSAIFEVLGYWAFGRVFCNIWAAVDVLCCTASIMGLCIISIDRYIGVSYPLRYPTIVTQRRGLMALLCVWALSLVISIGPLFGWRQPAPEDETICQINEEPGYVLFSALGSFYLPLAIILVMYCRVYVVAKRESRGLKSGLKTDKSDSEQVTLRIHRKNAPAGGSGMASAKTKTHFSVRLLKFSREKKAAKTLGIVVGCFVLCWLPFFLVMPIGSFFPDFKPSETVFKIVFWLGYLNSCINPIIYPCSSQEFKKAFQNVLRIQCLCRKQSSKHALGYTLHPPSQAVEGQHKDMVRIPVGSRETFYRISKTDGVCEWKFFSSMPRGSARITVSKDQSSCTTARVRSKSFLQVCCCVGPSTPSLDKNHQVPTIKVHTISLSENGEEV
Property label: pKi
Expect pKi as a plain number equal to -log10 of the molar concentration.

In: Give its pKi value. Item: COc1ccc2c(c1)N(C[C@H](C)CN(C)C)c1ccccc1[S+]2[O-] (stereo partly shown) [Sulfoxide, levomepromazine sulfoxide]
Out: 6.71

---

Property label: Ki (nM)
Respond numerically; units are nM and should not be typed.

In: Reported Ki for Muscarinic M3 (Homo sapiens, UniProt P20309), given `COc1ccc2c(c1)N(C[C@H](C)CN(C)C)c1ccccc1S2` ?
Out: 39

In: Reported Ki for Muscarinic M3 (Homo sapiens, UniProt P20309), given COc1ccc2c(c1)N(C[C@H](C)CN(C)C)c1ccccc1[S+]2[O-] (some centres unmarked) [Sulfoxide, levomepromazine sulfoxide] ?
Out: 551
